Source listed as ChEMBL document CHEMBL1127491.

Tested on: L1210
PROTOCOL_TEXT: Percentage of viable L1210 leukemia cells killed by single treatment with the compound
Type: ADME, cell-based
CONDITION_PARAMETERS: mouse
Binary call on Cells killed: condition met from 90% upward, condition not met beneath that.

Sample answers from the record:
>  <COMPOUND>
CS(=O)(=O)c1nc(N)nc2c1ncn2C1O[C@H](CO)[C@@H](O)[C@H]1O (stereo partly drawn)

>  <QUALITATIVE_LABEL>
condition not met

$$$$
>  <COMPOUND>
CCCCCn1cnc2c([S+](N)[O-])nc(N)nc21 (stereo not drawn)

>  <QUALITATIVE_LABEL>
condition not met

$$$$
>  <COMPOUND>
NSc1nc(N)nc2c1ncn2C1O[C@H](CO)[C@@H](O)[C@H]1O (stereo partly drawn)

>  <QUALITATIVE_LABEL>
condition met

$$$$
>  <COMPOUND>
C[S+]([O-])c1nc(N)nc2c1ncn2C1O[C@H](CO)[C@@H](O)[C@H]1O (stereo partly drawn)

>  <QUALITATIVE_LABEL>
condition not met

$$$$

Now look at this one.
Dear colleague, could you confirm whether "CCCCCCn1cnc2c(SN)ncnc21" has Cells killed at or above 90%?
condition not met

* * *

System: Mus musculus
PROTOCOL_TEXT: Maximum soluble dosage which induces toxicity in mice when administered intraperitoneally was determined
Assay type: organism-based
CONDITION_PARAMETERS: in vivo, ip
# thresholds on Dosage define classes: lower bin = under 50 mg/kg, middle bin = from 50 mg/kg up to 400 mg/kg, upper bin = 400 mg/kg and over

Solved cases (5 shown):
>  <COMPOUND>
NSc1nc(N)nc2c1ncn2C1O[C@H](CO)[C@@H](O)[C@H]1O (some centres not stated)

>  <QUALITATIVE_LABEL>
lower bin

$$$$
>  <COMPOUND>
CCCCCn1cnc2c([S+](N)[O-])ncnc21 (configuration not stated)

>  <QUALITATIVE_LABEL>
upper bin

$$$$
>  <COMPOUND>
CCCCCn1cnc2c(S)ncnc21

>  <QUALITATIVE_LABEL>
lower bin

$$$$
>  <COMPOUND>
CCCCCn1cnc2c(S)nc(N)nc21

>  <QUALITATIVE_LABEL>
lower bin

$$$$
>  <COMPOUND>
CCCCCCn1cnc2c(S)ncnc21

>  <QUALITATIVE_LABEL>
lower bin

$$$$

Category lookup for the compound Nc1nc([S+]([O-])Cc2ccccc2)c2ncn(C3O[C@H](CO)[C@@H](O)[C@H]3O)c2n1 (some centres not stated)
lower bin

Entry Nc1nc(S(=O)(=O)Cc2ccccc2)c2ncn(C3O[C@H](CO)[C@@H](O)[C@H]3O)c2n1 (some centres not stated) belongs to which category?
middle bin

Returns: class label. Input: "CS(=O)(=O)c1nc(N)nc2c1ncn2[C@H]1C[C@H](O)[C@@H](CO)O1"
upper bin

Kindly identify the class of "CCCCCn1cnc2c(SN)nc(N)nc21" .
lower bin

Using the reported Dosage, which band applies to Nc1nc([S+](N)[O-])c2ncn(CCCCCCO)c2n1 (configuration not stated) ?
lower bin

Bin this entry: C[S+]([O-])c1nc(N)nc2c1ncn2[C@H]1C[C@H](O)[C@@H](CO)O1 (some centres not stated)
upper bin

Hi there! Could you help me figure out the category for CCCCCCn1cnc2c([S+](N)[O-])nc(N)nc21 (configuration not stated) please?
upper bin

For CCCCCCn1cnc2c([S+](N)[O-])ncnc21 (configuration not stated) , which Dosage bin applies?
upper bin

Lab note: which band did CS(=O)(=O)c1nc(N)nc2c1ncn2C1O[C@H](CO)[C@@H](O)[C@H]1O (some centres not stated) land in?
middle bin

Bin? "CCCCCCn1cnc2c(S)nc(N)nc21"
middle bin

Which of the defined bands does the recorded Dosage of "CCCCCCn1cnc2c(SN)nc(N)nc21" sit within?
middle bin

Bin this entry: "CSc1nc(N)nc2c1ncn2[C@@H]1O[C@H](CO)[C@@H](O)[C@H]1O"
lower bin

Which class does C[S+]([O-])c1nc(N)nc2c1ncn2C1O[C@H](CO)[C@@H](O)[C@H]1O (some centres not stated) fall in?
upper bin
